- Test system: PC-3
- protocol.notes: NCI tumour cell line growth inhibition, 48 h
Activity calls are given as the source filed them. Rule as the data show it: active = GI50 up to about 1.1 µM and inactive = higher.
Bench note: report the call from T (active), F (inactive)

substance.smiles: C/C(=N/c1[nH]c(=O)cc2c1C(=O)CC2)N(C)C
study.target: PC-3
class.assignment: F
//
substance.smiles: Cc1c2cc[n+](C)cc2c(C)c2c1sc1ccccc12
study.target: PC-3
class.assignment: F

Could you now consider this next compound?
Exam item: Please state the recorded outcome for this compound: `CN(C)C(=S)/N=c1\ssc(=S)n1Cc1ccco1`
Marked response: T

* * *

- Test system: K562
- protocol.notes: NCI tumour cell line growth inhibition, 48 h
Calls of active or inactive are those of the source. Rule as the data show it: active = GI50 up to about 1.1 µM and inactive = higher.
Some molecules, each annotated with its measured GI50.

Consider the reported GI50 for these molecules:
molecule: CCOC(=O)c1nc2c3c(ncn2n1)Oc1c(c(-c2ccccc2)nn1-c1ccccc1)C3c1ccc(OC)c(OC)c1 (centres undefined)
GI50: 7.24 µM (inactive)
//
molecule: CC1C2(C)OCC(C#N)(C(=N)O2)C1(C#N)C#N (centres undefined)
GI50: 32.8 µM (inactive)
//
molecule: O=C(O)C(Cc1ccccc1)N1C(=O)N/C(=C\c2ccc(F)cc2)C1=O (centres undefined)
GI50: > 100 µM (inactive)

Exam item: Which GI50 value belongs to Clc1cccc(C2N3CCCCC3[C@@H]3c4[nH]c5ccccc5c4CCN23)c1 (some centres undefined) ?
Marked response: 23.1 µM (inactive)

* * *

- Test system: LOX IMVI
- protocol.notes: NCI tumour cell line growth inhibition, 48 h
Activity calls are given as the source filed them. Cut-off read from the data, not from the text of the source: active = GI50 up to about 1.1 µM and inactive = higher.
observable: GI50

Study these solved cases before continuing.
compound: COc1ccc2c(c1)C1Oc3ccccc3CC1(O)CO2 (centres undefined)
study.target: LOX IMVI
test.value: > 100 µM (inactive)
--
compound: O=C(O)c1oc2ccc([N+](=O)[O-])c3c2c1CCC3
study.target: LOX IMVI
test.value: > 100 µM (inactive)
--
compound: Sc1nnc(COc2ccc(Cl)cc2Cl)[nH]1
study.target: LOX IMVI
test.value: > 100 µM (inactive)
--
compound: C1CCC2C(C1)CCCC2NC1=NCCO1 (centres undefined)
study.target: LOX IMVI
test.value: > 100 µM (inactive)
--
compound: C=CCC1(Sc2ccccn2)Sc2ccc3ccccc3c2-c2c(ccc3ccccc23)S1
study.target: LOX IMVI
test.value: > 100 µM (inactive)

Exam item: Look up GI50: `COc1ccc(CCCNC(=O)Cc2cc(OC)c(OC)cc2CO)cc1OC`
Marked response: > 100 µM (inactive)

Exam item: Could you share which GI50 value was measured for `CCO/N=C(/N)c1ncn(Cc2ccccc2)c1NCC(OCC)OCC` ?
Marked response: > 100 µM (inactive)

Exam item: # input compound: O=C1c2ccccc2C2(Br)C(=O)c3ccccc3C12 (centres undefined) ; wanted: its GI50
Marked response: 11.1 µM (inactive)

Exam item: For the compound shown here, S=C=NC1CCC(c2cc3ccccc3s2)(N2CCCCC2)CC1 (centres undefined) , give the reported GI50.
Marked response: 1.64 µM (inactive)

* * *

- System: NCI-H23
- protocol.notes: NCI tumour cell line growth inhibition, 48 h
Calls of active or inactive are those of the source. Cut-off read from the data, not from the text of the source: active = GI50 up to about 1.1 µM and inactive = higher.
// values below are reported GI50

Worked cases, answers included:
molecule: COc1ccc2nc(-c3ccc(O)cc3)cc(O)c2c1
study.target: NCI-H23
GI50: 1.16 µM (inactive)
//
molecule: COc1cc(C2c3cc4c(cc3OC(C)(N3CCCC3)C2C)OCO4)cc(OC)c1OC (configuration not stated)
study.target: NCI-H23
GI50: 0.883 µM (active)
//
molecule: O=C(O)c1cccc(OCCOc2cccc(C(=O)O)c2[N+](=O)[O-])c1[N+](=O)[O-]
study.target: NCI-H23
GI50: > 100 µM (inactive)

Exam item: Please give the measured GI50 for this molecule: `COc1cc(OC)c2ssc3c(OC)cc(OC)c4ssc1c2-c43`
Marked response: > 100 µM (inactive)

Exam item: # query: GI50 of entry `Oc1ccc(Cl)cc1-c1cc(-c2ccccc2)nc(NCN2CCCCC2)n1`
Marked response: 72.1 µM (inactive)

Exam item: Value lookup for GI50; key = N#CC(c1nc2ccccc2s1)c1ncnc(Cl)c1[N+](=O)[O-] (configuration not stated)
Marked response: 16.5 µM (inactive)

Exam item: Give the measured GI50 of COC(=O)C1[C@H](c2ccc3c(c2)OCO3)OC(=O)[C@]1(C(=O)OC)C(=O)c1ccc(OC)c(OC)c1 (some centres not stated) .
Marked response: 29.3 µM (inactive)

Exam item: Need GI50 of COc1cc2oc(-c3ccc(O)cc3O)c(CC=C(C)C)c(=O)c2c(O)c1/C=C/C(C)C [ARTOCARPIN] , thanks.
Marked response: 3.24 µM (inactive)

Exam item: Reported GI50 for `CCOC(=O)/C=C1\Nc2ccccc2-n2nnnc21` : what is it?
Marked response: > 100 µM (inactive)

Exam item: Any idea what its GI50 is? The molecule is O=C([O-])C(O)C(O)C(O)C(O)C(=O)O.[K+] (configuration not stated)
Marked response: > 100 µM (inactive)

Exam item: I am curious: what GI50 value has been reported for `CCN(CC)Cc1ccccc1CC(=O)N1c2ccccc2C(=O)Nc2cccnc21` ?
Marked response: > 100 µM (inactive)

Exam item: What value of measured GI50 is listed for COc1ccc2c3c1O[C@H]1C(=O)C=CC4(n5[nH]c(=O)n(-c6ccccc6)c5=O)C(C2)N(C)CCC314 (some centres not stated) ?
Marked response: > 100 µM (inactive)

Exam item: GI50 for C1CCC2C(C1)CCCC2NC1=NCCO1 (configuration not stated) ?
Marked response: > 100 µM (inactive)

Exam item: Consider the molecule `CN(C)CC(C)(C)C(/C=C/c1ccccc1)=N\Nc1ccccc1` and give its measured GI50.
Marked response: 10.6 µM (inactive)

Exam item: Field request: GI50 | item: COC(=O)[C@]12CC=C3O[C@@H]4OC5(CCCCC5)O[C@@H]4[C@H]3C1C(=O)C=CC2=O (some centres not stated)
Marked response: 17.1 µM (inactive)

Exam item: Consider the molecule `COc1ccc(CNc2nc(NCc3ccc(OC)cc3)nc(Nc3ccccc3)n2)cc1` and give its measured GI50.
Marked response: 12.4 µM (inactive)

Exam item: What value of GI50 has been recorded for this entry: `COC(=O)c1c(OC(C)=O)ccc2c1c1cc3ccccc3c(OC(C)=O)c1n2C`
Marked response: 17.7 µM (inactive)

Exam item: Which GI50 value is on record for `Nc1ccccc1C(=O)CCC1C(=O)NC(=S)NC1=O` ?
Marked response: > 100 µM (inactive)

Exam item: Given the molecule CC(C)C1CC(O)O[C@@H]([C@@H](C)[C@H]2CC(=O)[C@@H]3[C@@H]4[C@@H](O)[C@H](O)[C@H]5[C@@H](O)[C@H](O)CC[C@]5(C)[C@H]4CC[C@]23C)C1 (some centres not stated) , what is its reported GI50?
Marked response: 36 µM (inactive)

Exam item: For the molecule `NC1=CN(Cc2ccccc2)C2=N/C(=C\c3ccccc3)C(=O)N12` , what GI50 is on record?
Marked response: > 100 µM (inactive)

* * *

Recorded measurements of GI50, one per entry
- Tested on: SK-MEL-2
- protocol.notes: NCI tumour cell line growth inhibition, 48 h
Active and inactive are the calls of the source. Rule as the data show it: active = GI50 up to about 1.1 µM and inactive = higher.

compound: COc1cc(C2c3cc4c(cc3OC(NNc3ccccc3)C2C)OCO4)cc(OC)c1OC (stereo not drawn)
observable: GI50
test.value: 1.23 µM (inactive)

Exam item: GI50 of `C=C(C)[C@@H]1CC[C@]2(C(=O)O)CC[C@]3(C)[C@H](CC[C@@H]4[C@@]5(C)CC(=O)C(C)(C)[C@@H]5CC[C@]43C)[C@@H]12` on SK-MEL-2?
Marked response: 4.52 µM (inactive)

Exam item: Given the entry `Cc1c2cc[n+](C)cc2c(C)c2c1sc1ccccc12` , what GI50 was observed with SK-MEL-2?
Marked response: 2.9 µM (inactive)

Exam item: Enter reported GI50 observed with SK-MEL-2 for N#CC1C(=O)N(c2ccccc2)NC12OC(=O)c1ccncc12 (stereo not drawn)
Marked response: > 20 µM (inactive)

* * *

- Test system: UACC-62
- protocol.notes: NCI tumour cell line growth inhibition, 48 h
Active and inactive are the calls of the source. Cut-off read from the data, not from the text of the source: active = GI50 up to about 1.1 µM and inactive = higher.
Answer with one of the outcomes given here: active, inactive

Previously resolved entries follow.
compound: COc1ccc2nc(-c3ccc(O)cc3)cc(O)c2c1
study.target: UACC-62
class.assignment: active
--
compound: O=C(Nc1sccc1S(=O)(=O)c1ccc(Cl)cc1)c1ccccc1
study.target: UACC-62
class.assignment: inactive

Exam item: Test call for this compound, please: `NCCNCCNCc1c2ccccc2c(CNCCNCCN)c2ccccc12`
Marked response: inactive

Exam item: For this compound, state the assay outcome: CCC1([N+](=O)[O-])CC2C=CC1C2 (configuration not stated)
Marked response: inactive

Exam item: Write down the call the test reported for this compound. Item: `C=C(C)[C@@H]1CC[C@]2(C(=O)O)CC[C@]3(C)[C@H](CC[C@@H]4[C@@]5(C)CC(=O)C(C)(C)[C@@H]5CC[C@]43C)[C@@H]12`
Marked response: inactive

Exam item: Please let me know the test result on file for `CC#Cc1ccc(-c2ccccc2)s1` .
Marked response: inactive
